- measurement_target: VEGFR2 (Homo sapiens)
- Sequence (P35968 20-1356): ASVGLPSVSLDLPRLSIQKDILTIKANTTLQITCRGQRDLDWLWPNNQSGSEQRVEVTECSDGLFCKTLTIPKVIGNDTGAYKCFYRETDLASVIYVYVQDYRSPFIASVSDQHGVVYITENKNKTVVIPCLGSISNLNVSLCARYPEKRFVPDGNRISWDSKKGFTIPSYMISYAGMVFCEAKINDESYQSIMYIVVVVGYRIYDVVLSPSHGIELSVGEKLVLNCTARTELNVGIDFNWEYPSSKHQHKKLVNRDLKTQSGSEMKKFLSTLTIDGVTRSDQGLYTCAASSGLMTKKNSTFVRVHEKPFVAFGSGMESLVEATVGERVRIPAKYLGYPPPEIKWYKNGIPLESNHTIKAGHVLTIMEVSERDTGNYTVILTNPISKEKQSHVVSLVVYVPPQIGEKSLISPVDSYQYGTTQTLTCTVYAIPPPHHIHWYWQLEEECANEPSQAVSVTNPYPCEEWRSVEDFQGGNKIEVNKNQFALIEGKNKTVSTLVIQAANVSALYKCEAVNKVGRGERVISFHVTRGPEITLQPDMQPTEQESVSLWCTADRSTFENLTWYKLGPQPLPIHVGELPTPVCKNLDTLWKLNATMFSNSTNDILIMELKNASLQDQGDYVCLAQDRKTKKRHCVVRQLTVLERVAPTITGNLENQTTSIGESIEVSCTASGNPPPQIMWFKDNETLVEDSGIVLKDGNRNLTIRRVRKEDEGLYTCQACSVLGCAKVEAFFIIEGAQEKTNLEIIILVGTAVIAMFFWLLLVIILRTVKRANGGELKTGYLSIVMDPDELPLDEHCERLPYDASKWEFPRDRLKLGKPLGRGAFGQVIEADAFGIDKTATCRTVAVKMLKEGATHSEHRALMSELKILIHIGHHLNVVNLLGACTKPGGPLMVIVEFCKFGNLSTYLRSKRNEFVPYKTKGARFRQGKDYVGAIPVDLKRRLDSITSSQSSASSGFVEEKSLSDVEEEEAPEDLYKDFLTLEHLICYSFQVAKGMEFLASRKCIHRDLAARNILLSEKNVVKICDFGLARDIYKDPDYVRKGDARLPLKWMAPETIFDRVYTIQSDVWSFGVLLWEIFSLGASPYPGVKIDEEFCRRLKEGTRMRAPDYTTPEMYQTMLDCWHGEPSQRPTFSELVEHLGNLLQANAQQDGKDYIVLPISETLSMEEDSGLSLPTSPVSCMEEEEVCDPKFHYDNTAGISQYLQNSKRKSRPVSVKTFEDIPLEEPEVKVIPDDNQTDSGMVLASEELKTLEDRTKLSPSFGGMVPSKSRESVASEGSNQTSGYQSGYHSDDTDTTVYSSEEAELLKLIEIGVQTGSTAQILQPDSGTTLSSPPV
- assay_overview: Kinase inhibition activity test, isotope labeling (γ-33P-ATP): VEGFR2
- Type: biochemical
- measurement_parameters: test compound at a concentration of 10 μM; read-out: Activity inhibition rate VEGFR2 (h)
parameter_measured: inhibition at 10 µM (%)
Enter your answer as a number in %; do not include the unit.

CC(C)(C)c1cc(NC(=O)Nc2ccc(Oc3ncnc4[nH]ncc34)cc2)no1 ... 100
O=C(Nc1ccc(Oc2ncnc3[nH]ncc23)cc1)Nc1cc(C(F)(F)F)on1 ... 100
O=C(Nc1cccc(Nc2ncnc3[nH]ncc23)c1)Nc1ccc(F)c(Cl)c1 ... 93
O=C(Nc1ccc(Oc2ncnc3[nH]ncc23)cc1)Nc1cccc(C(F)(F)F)c1 ... 100
O=C(Nc1ccc(Oc2ncnc3[nH]ncc23)cc1)Nc1ccc(N2CCOCC2)cc1 ... 91
COc1ccc(NC(=O)Nc2ccc(NC(=O)N3C=NC=C4NNC=C43)cc2)cc1 ... 95
O=C(Nc1ccc(Oc2ncnc3[nH]ncc23)cc1)Nc1ccc(C(F)(F)F)cc1 ... 100
C[C@@H](NC(=O)Nc1ccc(Nc2ncnc3[nH]ncc23)cc1)c1ccccc1 ... 88

Now look at this entry.
Prompt: Give reported inhibition at 10 µM value for O=C(Nc1ccc(NC(=O)N2C=NC=C3NNC=C32)cc1)Nc1ccc(Cl)c(C(F)(F)F)c1
Completion: 97
